measurement-description: Cmax in pig at 5.0 mg/kg, po
Assay type: ADME, organism-based, Sus scrofa
Set-up: dose 5 mg/kg, route oral
condition-set: in vivo
parameter: Cmax
Form entry: enter the amount, then its unit.

Record COC(=O)Nc1nc2ccc(Sc3ccccc3)cc2[nH]1 [FENBENDAZOLE] . Reported Cmax: 50 ng/mL

====

measurement-description: Aqueous stability of the compound
Type: physicochemical
condition-set: buffer
Assignment: determine reported Stability for the given compounds.

>>> endpoint_result("COC(=O)Nc1nc2cc(C(=O)c3ccccc3)ccc2n1COP(=O)([O-])O.[Na+]")
"> 8 h"
>>> endpoint_result("COC(=O)Nc1nc2cc([S+]([O-])c3ccccc3)ccc2n1COP(=O)([O-])O.[Na+] (stereo unspecified)")
"> 8 h"
>>> endpoint_result("CCCSc1ccc2c(c1)nc(NC(=O)OC)n2COP(=O)([O-])O.[Na+]")
"> 8 h"

Please give Stability, item by item, for the list that follows.
1. CCCCc1ccc2c(c1)nc(NC(=O)OC)n2COP(=O)([O-])O.[Na+]
2. COC(=O)Nc1nc2cc(C(=O)c3ccc(F)cc3)ccc2n1COP(=O)([O-])O.[Na+]
3. COC(=O)Nc1nc2cc(Sc3ccccc3)ccc2n1COP(=O)([O-])O.[Na+]

Response:
["> 8 h", "> 8 h", "> 8 h"]
